The following compounds are shown together with reported relative viability values.
- System: NCI-H1944
- TEST SUMMARY: relative viability (nuclei count vs DMSO), 5 days (fraction); higher = more cells survive
- TEST PARAMETERS: first compound 0.02 µM

| COMPOUND | relative viability |
| --- | --- |
| CCNC(=O)c1noc(-c2cc(C(C)C)c(O)cc2O)c1-c1ccc(CN2CCOCC2)cc1 [Luminespib] + C[C@]1(O)C[C@@H](c2nc(-c3ccc4ccc(-c5ccccc5)nc4c3)c3c(N)nccn32)C1 [Linsitinib] (partner 1 µM) | 0.791 |
| CCNC(=O)c1noc(-c2cc(C(C)C)c(O)cc2O)c1-c1ccc(CN2CCOCC2)cc1 [Luminespib] + N=C(N)NC(=N)NCCc1ccccc1 [Phenformin] (partner 250 µM) | 0.205 |
| CN1CCN(CCOc2cc(OC3CCOCC3)c3c(Nc4c(Cl)ccc5c4OCO5)ncnc3c2)CC1 [Saracatinib] + CC(=O)c1c(C)c2cnc(Nc3ccc(N4CCNCC4)cn3)nc2n(C2CCCC2)c1=O [Palbociclib] (partner 0.5 µM) | 0.3 |
| CN1CCN(CCOc2cc(OC3CCOCC3)c3c(Nc4c(Cl)ccc5c4OCO5)ncnc3c2)CC1 [Saracatinib] + Cc1nc(NC(=O)N2CCC[C@H]2C(N)=O)sc1-c1ccnc(C(C)(C)C(F)(F)F)c1 [Alpelisib] (partner 2 µM) | 0.847 |

* * *

- Tested on: SK-MES-1
- TEST SUMMARY: relative viability (nuclei count vs DMSO), 5 days (fraction); higher = more cells survive
- TEST PARAMETERS: first compound 0.2 µM
RECORDED METRIC: relative viability

| MOLECULE | TEST TARGET | ASSAY RESULT |
| --- | --- | --- |
| Cc1csc(=NC2CCCCC2)n1/N=C/c1ccc(O)c(O)c1O [MIM1] + Cc1nc(Nc2ncc(C(=O)Nc3c(C)cccc3Cl)s2)cc(N2CCN(CCO)CC2)n1 [Dasatinib] (partner 0.075 µM) | SK-MES-1 | 0.369 |
| CCNC(=O)c1noc(-c2cc(C(C)C)c(O)cc2O)c1-c1ccc(CN2CCOCC2)cc1 [Luminespib] + CC(=O)c1c(C)c2cnc(Nc3ccc(N4CCNCC4)cn3)nc2n(C2CCCC2)c1=O [Palbociclib] (partner 0.5 µM) | SK-MES-1 | 0.172 |

* * *

The following compounds are shown together with reported relative viability values.
- System: NCI-H23
- TEST SUMMARY: relative viability (nuclei count vs DMSO), 5 days (fraction); higher = more cells survive
- TEST PARAMETERS: first compound 2.53 µM

| COMPOUND | TEST TARGET | relative viability |
| --- | --- | --- |
| Nc1cccc2c1CN(C1CCC(=O)NC1=O)C2=O (centres undefined) [Lenalidomide] + CC(C)C[C@H](NC(=O)[C@H](Cc1ccccc1)NC(=O)c1cnccn1)B(O)O [Bortezomib] (partner 0.002 µM) | NCI-H23 | 1.3 |
| Nc1cccc2c1CN(C1CCC(=O)NC1=O)C2=O (centres undefined) [Lenalidomide] + CCNC(=O)c1noc(-c2cc(C(C)C)c(O)cc2O)c1-c1ccc(CN2CCOCC2)cc1 [Luminespib] (partner 0.01 µM) | NCI-H23 | 0.196 |
| Nc1cccc2c1CN(C1CCC(=O)NC1=O)C2=O (centres undefined) [Lenalidomide] + Cc1nc(Nc2ncc(C(=O)Nc3c(C)cccc3Cl)s2)cc(N2CCN(CCO)CC2)n1 [Dasatinib] (partner 0.075 µM) | NCI-H23 | 0.97 |
| Nc1cccc2c1CN(C1CCC(=O)NC1=O)C2=O (centres undefined) [Lenalidomide] + O=C(c1cc(Cc2n[nH]c(=O)c3ccccc23)ccc1F)N1CCN(C(=O)C2CC2)CC1 [Olaparib] (partner 8 µM) | NCI-H23 | 0.3 |

* * *

- System: CAL-12T
- TEST SUMMARY: relative viability (nuclei count vs DMSO), 5 days (fraction); higher = more cells survive
- TEST PARAMETERS: first compound 0.002 µM
The following molecules are shown together with reported relative viability values.

| MOLECULE | relative viability |
| --- | --- |
| CCNC(=O)c1noc(-c2cc(C(C)C)c(O)cc2O)c1-c1ccc(CN2CCOCC2)cc1 [Luminespib] + CC(=O)c1c(C)c2cnc(Nc3ccc(N4CCNCC4)cn3)nc2n(C2CCCC2)c1=O [Palbociclib] (partner 0.5 µM) | 0.601 |
| CCNC(=O)c1noc(-c2cc(C(C)C)c(O)cc2O)c1-c1ccc(CN2CCOCC2)cc1 [Luminespib] + CC1(C)CCC(c2ccc(Cl)cc2)=C(CN2CCN(c3ccc(C(=O)NS(=O)(=O)c4ccc(N[C@H](CCN5CCOCC5)CSc5ccccc5)c(S(=O)(=O)C(F)(F)F)c4)cc3)CC2)C1 [Navitoclax] (partner 0.5 µM) | 1.47 |
| CCNC(=O)c1noc(-c2cc(C(C)C)c(O)cc2O)c1-c1ccc(CN2CCOCC2)cc1 [Luminespib] + C[C@]1(O)C[C@@H](c2nc(-c3ccc4ccc(-c5ccccc5)nc4c3)c3c(N)nccn32)C1 [Linsitinib] (partner 1 µM) | 0.761 |
| CCNC(=O)c1noc(-c2cc(C(C)C)c(O)cc2O)c1-c1ccc(CN2CCOCC2)cc1 [Luminespib] + C[C@@H](Oc1cc(-c2cnn(C3CCNCC3)c2)cnc1N)c1c(Cl)ccc(F)c1Cl [Crizotinib] (partner 1 µM) | 0.7 |
| CCNC(=O)c1noc(-c2cc(C(C)C)c(O)cc2O)c1-c1ccc(CN2CCOCC2)cc1 [Luminespib] + N=C(N)NC(=N)NCCc1ccccc1 [Phenformin] (partner 250 µM) | 0.578 |
| CCNC(=O)c1noc(-c2cc(C(C)C)c(O)cc2O)c1-c1ccc(CN2CCOCC2)cc1 [Luminespib] + CC(C)C[C@H](NC(=O)[C@H](Cc1ccccc1)NC(=O)c1cnccn1)B(O)O [Bortezomib] (partner 0.002 µM) | 1.04 |
| CCNC(=O)c1noc(-c2cc(C(C)C)c(O)cc2O)c1-c1ccc(CN2CCOCC2)cc1 [Luminespib] + COc1cccc2cc(-c3nc([C@H]4CC[C@H](C(=O)O)CC4)n4ncnc(N)c34)[nH]c12 [OSI-027] (partner 0.5 µM) | 0.799 |

* * *

- System: 201T
- TEST SUMMARY: relative viability (nuclei count vs DMSO), 5 days (fraction); higher = more cells survive
- TEST PARAMETERS: first compound 0.001 µM
Sorting guide: entries reporting relative viability beneath 0.8 go in the TRUE pile, the rest go in the FALSE pile.

| COMPOUND | TEST TARGET | CLASSIFICATION |
| --- | --- | --- |
| Cc1cn(-c2cc(NC(=O)c3ccc(C)c(Nc4nccc(-c5cccnc5)n4)c3)cc(C(F)(F)F)c2)cn1 [Nilotinib] + O=C(c1cc(Cc2n[nH]c(=O)c3ccccc23)ccc1F)N1CCN(C(=O)C2CC2)CC1 [Olaparib] (partner 8 µM) | 201T | FALSE |
| Cc1cn(-c2cc(NC(=O)c3ccc(C)c(Nc4nccc(-c5cccnc5)n4)c3)cc(C(F)(F)F)c2)cn1 [Nilotinib] + C[C@@H](Oc1cc(-c2cnn(C3CCNCC3)c2)cnc1N)c1c(Cl)ccc(F)c1Cl [Crizotinib] (partner 1 µM) | 201T | FALSE |
| Cc1cn(-c2cc(NC(=O)c3ccc(C)c(Nc4nccc(-c5cccnc5)n4)c3)cc(C(F)(F)F)c2)cn1 [Nilotinib] + C[C@]1(O)C[C@@H](c2nc(-c3ccc4ccc(-c5ccccc5)nc4c3)c3c(N)nccn32)C1 [Linsitinib] (partner 1 µM) | 201T | FALSE |
| Cc1cn(-c2cc(NC(=O)c3ccc(C)c(Nc4nccc(-c5cccnc5)n4)c3)cc(C(F)(F)F)c2)cn1 [Nilotinib] + Nc1ncn([C@H]2C[C@H](O)[C@@H](CO)O2)c(=O)n1 [Decitabine] (partner 2 µM) | 201T | FALSE |
| Cc1cn(-c2cc(NC(=O)c3ccc(C)c(Nc4nccc(-c5cccnc5)n4)c3)cc(C(F)(F)F)c2)cn1 [Nilotinib] + CS(=O)(=O)N1CCN(Cc2cc3nc(-c4cccc5[nH]ncc45)nc(N4CCOCC4)c3s2)CC1 [Pictilisib] (partner 1 µM) | 201T | TRUE |

* * *

The following molecules are shown together with reported relative viability values.
- Tested on: NCI-H1355
- TEST SUMMARY: relative viability (nuclei count vs DMSO), 5 days (fraction); higher = more cells survive
- TEST PARAMETERS: first compound 0.2 µM

| MOLECULE | relative viability |
| --- | --- |
| CN1CCN(CCOc2cc(OC3CCOCC3)c3c(Nc4c(Cl)ccc5c4OCO5)ncnc3c2)CC1 [Saracatinib] + CC1(C)CCC(c2ccc(Cl)cc2)=C(CN2CCN(c3ccc(C(=O)NS(=O)(=O)c4ccc(N[C@H](CCN5CCOCC5)CSc5ccccc5)c(S(=O)(=O)C(F)(F)F)c4)cc3)CC2)C1 [Navitoclax] (partner 0.5 µM) | 0.895 |
| CCNC(=O)c1noc(-c2cc(C(C)C)c(O)cc2O)c1-c1ccc(CN2CCOCC2)cc1 [Luminespib] + C[C@]1(O)C[C@@H](c2nc(-c3ccc4ccc(-c5ccccc5)nc4c3)c3c(N)nccn32)C1 [Linsitinib] (partner 1 µM) | 0.81 |
| CN1CCN(CCOc2cc(OC3CCOCC3)c3c(Nc4c(Cl)ccc5c4OCO5)ncnc3c2)CC1 [Saracatinib] + Nc1ncn([C@H]2C[C@H](O)[C@@H](CO)O2)c(=O)n1 [Decitabine] (partner 2 µM) | 0.35 |
| CN1CCN(CCOc2cc(OC3CCOCC3)c3c(Nc4c(Cl)ccc5c4OCO5)ncnc3c2)CC1 [Saracatinib] + CS(=O)(=O)CCNCc1ccc(-c2ccc3ncnc(Nc4ccc(OCc5cccc(F)c5)c(Cl)c4)c3c2)o1 [Lapatinib] (partner 2 µM) | 0.956 |
| Cc1csc(=NC2CCCCC2)n1/N=C/c1ccc(O)c(O)c1O [MIM1] + CC1(C)CCC(c2ccc(Cl)cc2)=C(CN2CCN(c3ccc(C(=O)NS(=O)(=O)c4ccc(N[C@H](CCN5CCOCC5)CSc5ccccc5)c(S(=O)(=O)C(F)(F)F)c4)cc3)CC2)C1 [Navitoclax] (partner 0.5 µM) | 0.977 |
| Cc1csc(=NC2CCCCC2)n1/N=C/c1ccc(O)c(O)c1O [MIM1] + CC(=O)c1c(C)c2cnc(Nc3ccc(N4CCNCC4)cn3)nc2n(C2CCCC2)c1=O [Palbociclib] (partner 0.5 µM) | 0.391 |
| CCNC(=O)c1noc(-c2cc(C(C)C)c(O)cc2O)c1-c1ccc(CN2CCOCC2)cc1 [Luminespib] + N=C(N)NC(=N)NCCc1ccccc1 [Phenformin] (partner 250 µM) | 0.17 |
| CN1CCN(CCOc2cc(OC3CCOCC3)c3c(Nc4c(Cl)ccc5c4OCO5)ncnc3c2)CC1 [Saracatinib] + CC(=O)Nc1cccc(-n2c(=O)n(C3CC3)c(=O)c3c(Nc4ccc(I)cc4F)n(C)c(=O)c(C)c32)c1 [Trametinib] (partner 0.02 µM) | 0.456 |
